- procedure-text: soluble on expression in E. coli; label from the status in PepcDB or PDB records
endpoint-name: soluble on expression in E. coli

residue-sequence	soluble on expression in E. coli
MGSDKIHHHHHHMAVECIKDKVTRYPERASYSDEDLVAMLDRNFTCTVSFIDGGIPYAIPMMLASEGKTIYLHGSMKSRIYGILKTGQLIAISLLEINGIVLAKEIKNNSINYVSALIFGRPYEIDDTEKKIEVFRLLTEKLVKGRRDNSIKPSYEDLNGVFVFAVKPETFSMKARTGPPHDTSTDDIWSGVLPIQHTISEAGENAPEYVKSLYGKRIFI	not soluble
MGSDKIHHHHHHMPFITKISTQKKNTERFNIFLDDKYAFSVDADVLVKFELKKGKELDDLDIIEIQYGDEVKKGFNRALDFLSYRMRSTKEVEDHLKKKETSPPVIAEVIHRLNDYKYLNDQEFAAAYVSTHKKTNGKGPDVLFRELRAKGIDDDTIKEALSSFSFEDQTREAVKHVEKLLKKDKKLSTKELKQRAQLQLQRKGFSFDVISAAMDQIEYENDEDTEKEALRLHAEKAFRKYRYDGSYESAMKVKQFLFRKGFSLDLIEQLLQEEEY	not soluble
SNAMTEEHVVLLDEQDKPSGTLEKYAAHTLNTPLHLAFSCWLFNEDGQLLVTRRSLSKKAWPGVWTNSVCGHPQQGETTEEAIIRRCRFELGVEITDLTPVYPHFSYRATDPNGIVENEVCPVFAARATSVLQVNSEEVMDYQWSEFKSVWKSLLATPWAFSPWMVMQASDEQARERLLNYCQR	soluble
MGSDKIHHHHHHMTTVNETTSQAGLALAQAGSNSAAQGIQDQFLTLLVTQLRNQDPLNPMENAELTSQLAQISTVEGINNLKNTMLAISGQIDVSQSMDAVSMIGKGVLMPGDKVSLGADPNDPAQRGATPFGIDLQGDATKVTVKVLDPSGAVVRTMELGDLKTGVHTLQWDGNNDGGQPLADGKYSITVSASDADANPVKTEALTYGQVKSVAYSTNGLRLDLGLAGQISMLDVRKVIGASGSA	not soluble
MPKHIIDEIESLSLATGFILKNGDFTEEKSLLVKPTMGGTWHWSPIKGLHSQDSIRKTRAYILQEIARMTIYPEAGVSPTLRRKKGIVIGVARAVSTELYHIVENDLIEEEMDTAKLAVGYDGETIVIKNDVDSKWKEELSKPLNLSETENKVIQRLLLISHGVIPLQGYSLVTTSHHYNDKSKRAFSAVERQFFSRCDQLSWWKEDEEALRDAMWHKAGHPVKISFKKEIACSITIKQSLANAGIGSVACRLPATEDVVWKAEAYRNLLKTLSPIFDDEVKWEALDEMLSYLNHFSAARPTEVVTVHNAPTHLMSLDTREKVVTWIAQWCSQNAEKVAICLGFHTALLENAGKFPGPSYSLMVLRTNVDSYILGTKLFSDYTVFKAKLRQLMDSVS	soluble
MTIIFPSPIFGPVHSRRLGVSLGINLLPEDGKVCSFDCIYCECGFNADHRPKKHLPTREEVRIALEEKLKDMQKNGPAPDVLTFAGNGEPTAHPHFPEIIEDTLALRDHYFPNAKVSVLSNSTFIDRPAVFDALNKIDNNILKLDTVNEEYIHLLDRPNGKYSVRKIIEKMKEFKGNCIVQTMFLKGSYLGKDMNNTSDEFVLPWLEAVKEIAPSQVMIYTIDRETPDHDLQKATHEELDRIVELIKRTGIPATASY	not soluble
ILGIKTLLAVYRLFGRKAFDLILKLVMRYYHFTGKSAREASEIYLQNLQRYAAQQNIALPKQLDSYHHLLSFGRTMLDKLAAWQGDFNVDNLTIHGQHHFEEMAQKKQGVLILGSHLGNIELCRALGRRHSHVKINALVFTQHAEQFNAVMKAVNPNSELNLIQVSSMGPDTAILLQQKIEQGEWVVIVGDRTSTSKENRVVWADFLGKPAPFPQGPFMLASVLKAPVYLLFGLRDDEANTPHFNVYFEHFSDQITLPRKERQQALEHVVQQYAHRLEHHTLQAPLQWYNFFNFWTLSNQPHDKQQ	not soluble
MIKLENELLLVEMKEAGAELTRIFHKDTKLEYLWNADSTFWGRHSPVLFPTVGRLVEDTYFVDGNPYHLGQHGFARDRDFKVVEHTENAVRFELDADEDSLTIYPYKFKLSIIYTIEKDSVAVSYEVENTDNKRIYFSIGAHPAFNLPLADGTTFEDYYLDFGTEENLETLCLEGPYRSGKIEKVVNEPARYLPLSYDLFKNDALIFEGLKQKEITIKSDKTPHFVKVSFPEFPFVGVWTAKAGTPFLCIEPWYGIADGAGKSVELRDKAGIEHLEPEAVFASEYKITIGLEHHHHHH	not soluble

Prompt line: For the sequence shown here, MGSDKIHHHHHHMQNIIIEARVNELATRIGNPHVPFLPAEVIADAKACHDAGASIFHFHGRNEDGTPSHDPNFYLETNAGIRAQSDILIHPTLGYVANDTDAKGRFAAIEQMMQSAETAPDFAPMDTGSVNVDWWNPDEGKYDTTELIYKNSTGTLMYFADRIRHYNLTPYLVSWNVSFTRQIEQFLKMGVLDAPAYICFCMTDEIIFAGHPGTEAGLDAHTAFLPPEFETVWTVVNYKGDLFQLTEKIIRTGGHISIGLGDYAYMDGSRHMTNAEVIAKVADQARRLGREPASVAETREILNMKTPRIAA , give the reported soluble on expression in E. coli.
Response line: not soluble

Prompt line: Then MLKVLVVDDEMLARDELKYLLERTKEVEIIGEADCVEDALEELMQSRPDIVFLDIQLSDDNGFEIANILKKMKNPPAIVFATAYDQYALQAFEVDALDYILKPFDEERIVQTLKKYKKQKQSQIETKHEIKGTDVTVEMHKLALPIEESIVLVNIEDIVYVGLVDGKVTVKTMRETYVTHDTLVILEKKLPQVSFMRVHRSFIANINHITEIQPWFNSTYNLIMKEGSKVPVSRTYAKELKKLLRI ?
Response line: not soluble

Prompt line: Next sequence: MGSDKIHHHHHHMGGIWMSSAKTLEEVISKISGVISAKVIEEDGQPREIHVIADPSRNPKQIVRDIETVALASLGMKIDRRIISVAQLSQGRFPSSQTYEITSIEVKNLDRKKQVKVTIHNPLEDEDMVGESAGPGTSTNLPRLVGEAVIEAFNPDCPVSVDDVQKVFLAGREFVLVHLTIQDEDRERTEVGVAPLEGDFLKSVATATLKVVKDLT
Response line: not soluble
